# Tested on: ATP;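 note: ATP exposure 15 min at 22 °C before imaging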
# procedure details: switch fluorescence ratio, 500 uM ATP over buffer (Cy3 cluster intensity, sum of 5 cycles each) (fold (ratio)); higher = stronger signal-on switching upon ATP binding; sequences stand for … in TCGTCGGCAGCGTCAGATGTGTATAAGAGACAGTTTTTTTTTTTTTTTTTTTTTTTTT…TC
# measurement conditions: aptamer strand: ATP DNA aptamer (quencher-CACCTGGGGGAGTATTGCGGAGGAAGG + anchor), 100 nM annealed; ATP concentration: 500 uM
measure name: switch fluorescence ratio
Respond using a number only.

Known switch fluorescence ratio results, listed for orientation:
seq string	recorded number
TTATAGTCGT	1
TGCAAGGGAG	1.01
GGGCAAGGCG	1.01
GTTGTGCAAT	1.16
TTAGAGGGTC	0.995

Need switch fluorescence ratio, item AAGGCTGGGT
1.02

Request the reported switch fluorescence ratio associated with TATTGAAATT
1.05

Entry GTTCTCTGGG : reported switch fluorescence ratio = ?
0.987

Query (sequence): TAGCGGTTGT ; field requested: switch fluorescence ratio
0.999

Give its switch fluorescence ratio value. Item: TTAGTTTTGG
1.04

###

Form field: switch fluorescence ratio (one value per entry).
# System: ATP;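 note: ATP exposure 15 min at 22 °C before imaging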
# procedure details: switch fluorescence ratio, 500 uM ATP over buffer (Cy3 cluster intensity, sum of 5 cycles each) (fold (ratio)); higher = stronger signal-on switching upon ATP binding; sequences stand for … in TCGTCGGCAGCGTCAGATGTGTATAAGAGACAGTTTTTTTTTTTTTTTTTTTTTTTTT…TC
# measurement conditions: aptamer strand: ATP DNA aptamer (quencher-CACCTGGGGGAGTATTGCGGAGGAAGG + anchor), 100 nM annealed; ATP concentration: 500 uM
// print number alone

Some solved cases for reference:
seq string	system tested	switch fluorescence ratio
GGGTGGGCGT	ATP	1.05
CGGAGGTAGG	ATP	1.01
TAGAAGTCTG	ATP	1.06
ACGAGGGGGG	ATP	1.02
CGTATTCTGT	ATP	0.985
CGGGTAAGTC	ATP	0.995
TGGACATGTG	ATP	1.05
TTGATACGTG	ATP	1.01
ATTAGTTCCG	ATP	0.981
AGTAAACCAT	ATP	1.04

Reported switch fluorescence ratio for TTTGTATTCG : what is it?
1

# input sequence: TTTGATTCAG ; wanted: its switch fluorescence ratio
1.04

###

We begin with a simple list: items and their reported switch fluorescence ratio.
# Tested on: ATP;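 note: ATP exposure 15 min at 22 °C before imaging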
# procedure details: switch fluorescence ratio, 500 uM ATP over buffer (Cy3 cluster intensity, sum of 5 cycles each) (fold (ratio)); higher = stronger signal-on switching upon ATP binding; sequences stand for … in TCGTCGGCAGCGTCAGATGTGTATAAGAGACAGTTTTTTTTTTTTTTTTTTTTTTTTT…TC
# measurement conditions: aptamer strand: ATP DNA aptamer (quencher-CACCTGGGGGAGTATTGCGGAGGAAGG + anchor), 100 nM annealed; ATP concentration: 500 uM
Please reply with the value in numeric form only.

Sample records with switch fluorescence ratio:
seq string	switch fluorescence ratio
ATTTTTTGAC	0.992
AAAAGCGTGG	1

// switch fluorescence ratio lookup, key: TGTTGGGACG
1.1

Can you look up the measured switch fluorescence ratio of GGGCGTGTTT for me?
1

I would be grateful if you could share the reported switch fluorescence ratio for GTGGAAGTCC .
1

Can you look up the measured switch fluorescence ratio of TTGATTTATA for me?
0.983

Entry TGGTTGTTTA : reported switch fluorescence ratio = ?
0.993

Dear colleague, I am looking for the recorded switch fluorescence ratio of the following sequence: AGGGTCGACT
1.03

Can you share its switch fluorescence ratio? I mean this sequence: GAGAGCGGTG
0.995

Name the recorded switch fluorescence ratio for GTTTTTTGGG .
1

Give its switch fluorescence ratio value. Item: AAAATGTGAC
1.04

Record request: switch fluorescence ratio value, item GTGTGTCTGT
0.991
